Here the recorded %Inh is given for each entry.
# Tested on: PIK3CG;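 further: KINOMEscan kinase panel screen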
# test parameters: concentration: 1 μM,replicates: in singlicate; n = 1
State just the number; it will be interpreted in %.

COc1cccc(OC)c1C(=O)Nc1cccc(-c2nn3ccccc3c2-c2ccnc(Nc3cccc(F)c3)n2)c1 [GSK361065] | 0
Cn1ccc2ncnc(Oc3ccc(NC(=O)Nc4cc(C(C)(C)C)on4)c(Cl)c3)c21 | 4
CN1CCN(CCNc2nc3cc(Oc4ccc(NC(=O)Nc5cc(C(F)(F)F)ccc5F)cc4)ccc3[nH]2)CC1.Cl.Cl [GW768504] | 0
O=c1[nH]cc(-c2ccc(O)cc2)c2sc(-c3ccncc3)cc12 [GSK1033723] | 7
COC(=O)c1cccc(NC(=O)NC2CCN(c3ccnc(NCc4ccc(F)cc4)n3)CC2)c1 [GSK1379860] | 0

// returns reported %Inh for input "O=C(Nc1cccc(Oc2ccc3nccn3n2)c1)Nc1cccc(C(F)(F)F)c1"
18

# %Inh lookup, item Nc1nccc(-c2ccc3c(N)n[nH]c3c2)n1 [GSK1034945]
2

If you can, please state the reported %Inh value of COc1cc(Nc2nccc(N3CCC(NC(=O)c4cccc(C#N)c4)C3)n2)cc(OC)c1OC (centres unmarked) [GSK1379751] .
0

For the compound shown here, COc1cccc(CNC(=O)NC2CCN(c3ccnc(Nc4cc(OC)c(OC)c(OC)c4)n3)C2)c1 (centres unmarked) [GSK1379765] , give the reported %Inh.
0

Requested read-out: %Inh. Entry: "C[C@@H]1CCN(C(=O)N2CCCC2)C[C@@H]1N(C)c1ncnc2[nH]ccc12"
14

Endpoint output: %Inh of "OCCn1cc(-c2cnc3nnn(Cc4ccc5ncccc5c4)c3n2)cn1" . Value?
0

Bench note: what %Inh did C[C@@H](Oc1cc(-n2cnc3cc(-c4ccncc4)ccc32)sc1C(N)=O)c1ccccc1Cl [GSK479719] show?
0

State the recorded %Inh for this entry: COC(=O)c1cccc(NC(=O)NC2CCN(c3ccnc(Nc4cc(OC)c(OC)c(OC)c4)n3)C2)c1 (centres unmarked) [GSK1379767]
21

Data provenance is paper PMC5540273.
